Data origin, for the record: paper PMC9926234

target: SARS-CoV-2 NSP3 Mac1 (Severe acute respiratory syndrome coronavirus 2, UniProt P0DTD1); assay type: binding; conditions: PanDDA event map, 1 minus background density correction; crystal soaking of Mac1
reported property: 1-BDC (PanDDA)
API note: the answer field is a bare number with no unit suffix.

1-BDC (PanDDA) for O=C(O)C1(F)CN(c2ncnc3[nH]c4cc(F)ccc4c23)CC12COC2 (stereo not drawn) is 0.08

get_value(item= O=C(Nc1ccc(C(=O)N[C@H]2c3cccc(O)c3C[C@H]2C(=O)O)cc1)NC1CC1 , readout=1-BDC (PanDDA)) returns 0.27

Documented 1-BDC (PanDDA) of CNc1cnc(C(=O)N2CC(c3noc(O)n3)C2)cn1.O=C(O)C(F)(F)F : 0.31

Value of 1-BDC (PanDDA) reported for the molecule O=C(NC1c2cccc(O)c2CC1C(=O)O)c1ccc2[nH]c(CO)nc2c1 (stereo not drawn) is 0.19

For record COc1cncc(C(=O)NCCNC(=O)c2ncccc2O)c1 the listed 1-BDC (PanDDA) is 0.14

Lab book: 1-BDC (PanDDA) of Cl.O=C(O)C1CN(c2ncnc3[nH]c4cc(F)ccc4c23)CCO1 (stereo not drawn) noted as 0.15

O=C(O)CCC1CCCN(c2ncnc3[nH]c4cc(F)ccc4c23)C1 (stereo not drawn) yielded 1-BDC (PanDDA) of 0.1

// 1-BDC (PanDDA) lookup, molecule = O=S1(=O)CCC1CNc1ncnc2[nH]c3cc(F)ccc3c12 (stereo not drawn) , result: 0.07

GET /value?item= O=C(Nc1ccc(C(=O)NC2c3cccc(O)c3CC2C(=O)O)c2scnc12)NC1CC1 (stereo not drawn) &field=1-BDC (PanDDA) returns 0.09

Measured 1-BDC (PanDDA) of O=C(O)[C@@H]1CCC[C@H](Nc2ncnc3[nH]c4cc(F)ccc4c23)C1 : 0.32

Short answer for O=C(NCc1c(C(=O)O)[nH]c2ccccc12)c1ccc2[nH]c(O)nc2c1 : 1-BDC (PanDDA) was 0.05

The recorded 1-BDC (PanDDA) for Cc1noc(-c2ccnc(-c3ccnc4[nH]ccc34)c2)n1 is 0.07

The molecule listed as O=C(O)CC1CN(c2ncnc3[nH]c4cc(F)ccc4c23)CC2(CCC2)O1 (stereo not drawn) shows 1-BDC (PanDDA) equal to 0.11

// CC(Cc1ccco1)C(=O)N[C@@H](CC(=O)O)c1ccc2c(c1)OCO2 (stereo partly drawn) : 1-BDC (PanDDA) value = 0.15

Record C[C@H]1CN(C(=O)c2cccc3[nH]c(=O)oc23)C[C@@H]1C(=O)O . Reported 1-BDC (PanDDA): 0.08

According to the records, this molecule Cc1c[nH]c2ncc(C(=O)N(C)c3nnn[nH]3)cc12 displays 1-BDC (PanDDA) of 0.2

response.value for Fc1ccc2c(c1)[nH]c1ncnc(N3CCOC(c4nnn[nH]4)C3)c12 (stereo not drawn) (field: 1-BDC (PanDDA)) = 0.25

Measured 1-BDC (PanDDA), Cc1oc(CNc2ncnc3[nH]c4ccccc4c23)cc1C(=O)O : 0.09

###

target: SARS-CoV-2 NSP3 Mac1 (Severe acute respiratory syndrome coronavirus 2, UniProt P0DTD1); assay: biochemical; format: binding; conditions: HTRF ADPr-peptide displacement from SARS-CoV-2 Mac1; read-out: IC50
Classes based on IC50: lower range = under 10 µM, middle range = from 10 µM up to 80 µM, upper range = 80 µM and over

**Q:** Class label required: COC(=O)Nc1ccc(C(=O)NC2c3ccccc3CC2C(=O)O)cc1 (stereo not shown) [Z8531]
**A:** upper range

**Q:** // return the class label for CNC(=O)Nc1ccc(C(=O)NC2c3ccccc3CC2C(=O)O)cc1 (stereo not shown) [Z8515]
**A:** lower range

**Q:** Class for Nc1ccc(C(=O)OC2c3ccccc3CC2C(=O)O)c(O)c1 (stereo not shown) [Z8507] ?
**A:** upper range

**Q:** Could you tell me which band CCc1c[nH]c2ncnc(N3CCCC(S(C)(=O)=O)C3)c12 (stereo not shown) [Z1027] belongs to?
**A:** upper range

**Q:** State the class of the compound shown: O=C(O)C1(F)CN(c2ncnc3[nH]c4cc(F)ccc4c23)CC12COC2 (stereo not shown) [LL123_0031]
**A:** middle range

**Q:** Band assignment needed for CCc1c[nH]c2ncnc(N3CCCC(Cc4nc(C)no4)C3)c12 (stereo not shown) [Z5531] please.
**A:** upper range

**Q:** Form field 'band' for O=C(O)C[C@@H]1CN(c2ncnc3[nH]c4cc(F)ccc4c23)C[C@H](CO)O1 [LL114_0001]
**A:** lower range

**Q:** Into which category would you place CCc1c[nH]c2ncnc(N3CCC[C@H](C(N)=O)C3)c12 [Z3271] ?
**A:** upper range

**Q:** Form: Item = O=C(Nc1ccc(C(=O)NCc2c(C(=O)O)sc3ccccc23)cc1)NC1CC1 [Z8539_0025] ; Class = ?
**A:** middle range

**Q:** Which band does Nc1cc(NC(=O)NC2CC2)ccc1C(=O)NC1c2cccc(O)c2CC1C(=O)O (stereo not shown) [Z8539_0059] fall in?
**A:** lower range

**Q:** The entry to classify is Fc1ccc2c(c1)[nH]c1ncnc(N3CCOC(c4nnn[nH]4)C3)c12 (stereo not shown) [LL114_0008] ; which class holds it?
**A:** middle range

**Q:** Would you mind sorting Cc1[nH]c2ncnc(N3CCOC(CC(F)(F)F)C3)c2c1C (stereo not shown) [Z2051] into the appropriate category?
**A:** upper range

**Q:** Into which category would you place O=S1(=O)CCC2(CCCN(c3ncnc4[nH]ccc34)C2)C1 (stereo not shown) [Z4305] ?
**A:** upper range

**Q:** Record O=C(Nc1ccc(C(=O)NC2c3cccc(O)c3CC2C(=O)O)c2scnc12)NC1CC1 (stereo not shown) [Z8539_0065] — which class?
**A:** lower range

**Q:** State the class of the compound shown: O=C1CCCC1Nc1ncnc2[nH]c3cc(F)ccc3c12 (stereo not shown) [LRH-0008]
**A:** middle range

**Q:** Input O=C(NC1c2cccc(O)c2CC1C(=O)O)c1ccc(Nn2ccnc2)cc1 (stereo not shown) [Z8539_0011] ; output its category
**A:** middle range

**Q:** Class for O=C(Nc1ccc(C(=O)NCc2c(C(=O)O)oc3ccccc23)cc1)NC1CC1 [Z8539_0026] ?
**A:** upper range

**Q:** Using the reported IC50, which band applies to O=C(NC1c2ccccc2CC1C(=O)O)c1ccc(NC(=O)C2CC2)cc1 (stereo not shown) [Z9604] ?
**A:** upper range

**Q:** # bin label for O=C(Nc1ccc(C(=O)NC2c3cccc(O)c3CC2C(=O)O)c(Cl)c1)NC1CC1 (stereo not shown) [Z8539_0055]
**A:** lower range

**Q:** Please report the category associated with CS(=O)(=O)NC(=O)C1CN(c2ncnc3[nH]c4cc(F)ccc4c23)CCO1 (stereo not shown) [LL114_0019] , nothing else.
**A:** middle range

**Q:** Hi there! Could you help me figure out the category for O=c1[nH]nc(C2CCCN(c3ncnc4[nH]ccc34)C2)o1 (stereo not shown) [Z7655] please?
**A:** upper range

**Q:** Place this compound in its band: O=C(OCCN1CCOC1=O)c1ncnc2[nH]ccc12 [Z8207]
**A:** middle range

**Q:** Just checking, what class would you give O=C(O)C1CN(c2ncnc3[nH]c4cc(F)ccc4c23)CC12CCC2 (stereo not shown) [LL123_0020] here?
**A:** middle range

**Q:** Input O=C(O)C1CN(c2ncnc3[nH]c4cc(F)ccc4c23)CCC12CCC2 (stereo not shown) [LL123_0029] ; output its category
**A:** middle range
